# Procedure Summary: Aqueous kinetic solubility in PBS pH 7.4
# Type: physicochemical
# Condition Info: phosphate buffered saline (PBS); aqueous kinetic solubility from 10 mM DMSO solution in PBS pH 7.4; target concentration 250 μM (final DMSO 2.5%)
Property Label: solubility at 24 h (µM)
Give just the numeric value; µM need not be written.

>>> reported("CCCCCCCCNc1ccc(C(=O)O)cc1S(=O)(=O)N(C)C")
52
>>> reported("CN(C)S(=O)(=O)c1cc(C(=O)O)c(OC2CCCC2)cc1NCCCCCCCC(F)(F)F")
11
>>> reported("CCCCCCNc1ccc(C(=O)O)cc1S(N)(=O)=O")
238
>>> reported("CCCCCCCCNc1ccc(C(=O)O)cc1S(=O)(=O)NC")
53
>>> reported("CCCCCCNc1ccc(C(=O)O)cc1S(=O)(=O)N(C)C")
243

Look up solubility at 24 h: `CCCCCCNc1ccc(C(=O)O)cc1S(=O)(=O)NC` 247

Now this one: `O=C(O)c1ccc(NCCCCCCCC(F)(F)F)c(S(=O)(=O)N2CCCCC2)c1` 13

Another molecule: `CN(C)S(=O)(=O)c1cc(C(=O)O)ccc1NCCCCCC(F)(F)F` 249

###

# Assay System: NKCC1 (Homo sapiens, UniProt P55011)
# Construct: host or cells: HEK293
# Procedure Summary: Cl- influx assay in NKCC1-transfected HEK293 cells
# Format: cell-based
# Condition Info: HEK293, read-out: Inhibition 100 μM Cl- influx (%)
Property Label: inhibition at 100 µM (%)
Could you give me the number in %? Just the number is fine.

Please review the entries below; each comes with its answer.
>>> reported("CCCCCCNc1ccc(C(=O)O)cc1S(N)(=O)=O")
4.9
>>> reported("CCCCCCCCNc1ccc([N+](=O)[O-])cc1S(N)(=O)=O [Compound 7, 5-Nitro-2-(octylamino)benzenesulfonamide]")
5.8
>>> reported("CCCCNc1ccc(C(=O)O)cc1S(N)(=O)=O")
6.4
>>> reported("CCCCCCNc1ccc([N+](=O)[O-])cc1S(=O)(=O)N(C)C")
4.9
>>> reported("CC(C)(C)CCNc1ccc(C(=O)O)cc1S(N)(=O)=O")
5.1
>>> reported("COCCCCNc1ccc(C(=O)O)cc1S(=O)(=O)N(C)C")
5.2

Query inhibition at 100 µM on NKCC1 (Homo sapiens, UniProt P55011) for `CCCCNc1ccc(C(=O)O)cc1S(=O)(=O)NC` 6.2

###

# Assay System: NKCC1 (Mus musculus)
# Construct: primary neuronal cultures of dissociated hippocampal neurons were prepared from E18 C57BL/6J mice; endogenous in cells; host or cells: primary hippocampal neurons from E18 C57BL/6J mice, 3 DIV
# Sequence (P55012 whole entry): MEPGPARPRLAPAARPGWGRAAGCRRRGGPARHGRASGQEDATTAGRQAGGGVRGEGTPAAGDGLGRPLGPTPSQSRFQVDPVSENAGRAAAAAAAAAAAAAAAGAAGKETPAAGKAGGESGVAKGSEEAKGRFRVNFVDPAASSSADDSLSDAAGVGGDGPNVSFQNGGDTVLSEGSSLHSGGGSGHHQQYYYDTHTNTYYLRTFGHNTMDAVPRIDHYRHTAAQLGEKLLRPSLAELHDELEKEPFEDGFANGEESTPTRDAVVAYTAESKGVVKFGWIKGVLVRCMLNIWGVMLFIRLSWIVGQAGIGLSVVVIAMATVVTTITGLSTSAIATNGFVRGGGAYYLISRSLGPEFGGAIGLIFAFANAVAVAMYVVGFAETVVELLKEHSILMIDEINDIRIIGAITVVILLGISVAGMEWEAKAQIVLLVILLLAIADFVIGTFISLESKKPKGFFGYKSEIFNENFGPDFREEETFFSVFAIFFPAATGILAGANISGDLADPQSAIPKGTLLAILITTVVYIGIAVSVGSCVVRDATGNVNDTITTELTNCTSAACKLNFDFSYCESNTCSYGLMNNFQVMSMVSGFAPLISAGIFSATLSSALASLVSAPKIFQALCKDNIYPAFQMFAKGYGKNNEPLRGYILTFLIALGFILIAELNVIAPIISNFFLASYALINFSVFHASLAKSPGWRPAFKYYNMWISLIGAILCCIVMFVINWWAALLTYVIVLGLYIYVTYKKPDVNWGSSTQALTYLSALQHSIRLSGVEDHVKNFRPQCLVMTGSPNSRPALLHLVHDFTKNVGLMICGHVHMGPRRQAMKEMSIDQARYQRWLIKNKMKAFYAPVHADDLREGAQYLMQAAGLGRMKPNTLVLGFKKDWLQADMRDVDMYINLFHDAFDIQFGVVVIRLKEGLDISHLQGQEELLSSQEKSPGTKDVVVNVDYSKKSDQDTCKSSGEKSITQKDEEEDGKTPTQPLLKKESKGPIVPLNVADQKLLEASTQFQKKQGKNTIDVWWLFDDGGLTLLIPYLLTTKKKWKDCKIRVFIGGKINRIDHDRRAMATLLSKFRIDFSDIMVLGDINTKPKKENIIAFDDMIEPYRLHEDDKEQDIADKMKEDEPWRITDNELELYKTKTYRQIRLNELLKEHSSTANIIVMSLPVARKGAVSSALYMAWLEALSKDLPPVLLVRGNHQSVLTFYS
# Procedure Summary: Ca2+ influx assay in immature primary neuronal cultures (indirect measure of NKCC1 inhibition)
# Assay type: cell-based
# Condition Info: 10 μM; cultured neurons, 3 DIV
Entries annotated with measured inhibition at 10 µM
Reply numerically in %, unit not repeated.

Example cases with answers are listed next.
>>> reported("O=C(O)c1ccc(NCCCCCCCC(F)(F)F)c(S(=O)(=O)N2CCOCC2)c1 [Compound 35]")
16.5
>>> reported("CCOc1cc(NCCCCCCCC(F)(F)F)c(S(=O)(=O)N(C)C)cc1C(=O)O [Compound 42]")
13.4
>>> reported("O=C(O)c1ccc(NCCCCCCCC(F)(F)F)c(S(=O)(=O)N2CCCC2)c1 [Compound 33]")
31.7
>>> reported("O=C(O)c1ccc(NCCCCCCCC(F)(F)F)c(S(=O)(=O)NC2CCOCC2)c1 [Compound 38]")
7.1
>>> reported("O=C(O)c1ccc(NCCCCCCCC(F)(F)F)c(S(=O)(=O)N2CCCCC2)c1 [Compound 34]")
49.2

Kindly consider the entry below.
Entry under review: CN(C)S(=O)(=O)c1cc(C(=O)O)c(Cl)cc1NCCCCCCCC(F)(F)F [Compound 39] . Reported inhibition at 10 µM? 19.4

###

# Assay System: NKCC1 (Mus musculus)
# Construct: primary neuronal cultures of dissociated hippocampal neurons were prepared from E18 C57BL/6J mice; endogenous in cells; host or cells: primary hippocampal neurons from E18 C57BL/6J mice, 3 DIV
# Procedure Summary: Ca2+ influx assay in immature primary neuronal cultures (indirect measure of NKCC1 inhibition)
# Type: cell-based
# Condition Info: 10 μM; cultured neurons, 3 DIV
Below, each entry is listed alongside its reported inhibition at 10 µM.
The response must be a number in % with no trailing unit.

Example results:
>>> reported("O=C(O)c1ccc(NCCCCCCCC(F)(F)F)c(S(=O)(=O)NC2CCCCC2)c1")
49.5
>>> reported("CN(C)S(=O)(=O)c1cc(C(=O)O)ccc1NCCCCCCCC(F)(F)F")
45.7
>>> reported("COc1cc(NCCCCCCCC(F)(F)F)c(S(=O)(=O)N(C)C)cc1C(=O)O")
14.2
>>> reported("CN(C)S(=O)(=O)c1cc(C(=O)O)c(OC2CCCC2)cc1NCCCCCCCC(F)(F)F")
27.4
>>> reported("CCCCNc1cc(C(=O)O)cc(S(N)(=O)=O)c1Oc1ccccc1 [bumetanide, reference compound]")
51.9

So what does the record say about inhibition at 10 µM for `O=C(O)c1ccc(NCCCCCCCC(F)(F)F)c(S(=O)(=O)NC2CCCC2)c1` ? 45.3

Also `CNS(=O)(=O)c1cc(C(=O)O)ccc1NCCCCCCCC(F)(F)F` ? 9.3

Now the same for `CN(C)S(=O)(=O)c1cc(C(=O)O)c(O)cc1NCCCCCCCC(F)(F)F` 13.9

###

# Procedure Summary: Aqueous kinetic solubility in PBS pH 7.4
# Assay type: physicochemical
# Condition Info: phosphate buffered saline (PBS); aqueous kinetic solubility from 10 mM DMSO solution in PBS pH 7.4; target concentration 250 μM (final DMSO 2.5%)
# Procedure: 1. Aqueous kinetic solubility. 30 µL aliquots of 10 mM DMSO stock solution of the test compound were incubated in Phosphate Buffered Saline (PBS) at pH 7.4 at 25°C for 24h. After centrifugation the dissolved compound in the supernatant was quantified by LC-MS/MS. Aqueous kinetic solubility was determined by UV quantification at 215 nm. […]
Measured solubility at 24 h of individual entries
Quick note: give the figure in µM, leave out the unit.

>>> reported("COCCNc1ccc(C(=O)O)cc1S(=O)(=O)N(C)C")
237
>>> reported("O=C(O)c1ccc(NCCCCCCCC(F)(F)F)c(S(=O)(=O)N2CCOCC2)c1")
244
>>> reported("CCCCCCNc1ccc([N+](=O)[O-])cc1S(N)(=O)=O")
6
>>> reported("O=C(O)c1ccc(NCCCCCCCC(F)(F)F)c(S(=O)(=O)NC2CCOCC2)c1")
244
>>> reported("O=C(O)c1ccc(NCCCCCCCC(F)(F)F)c(S(=O)(=O)N2CCCC2)c1")
66

Please examine the following record next.
Which solubility at 24 h value is on record for `CNS(=O)(=O)c1cc([N+](=O)[O-])ccc1NCCC(C)(C)C` ? 3

###

# Procedure Summary: Aqueous kinetic solubility in PBS pH 7.4
# Format: physicochemical
# Condition Info: phosphate buffered saline (PBS); aqueous kinetic solubility from 10 mM DMSO solution in PBS pH 7.4; target concentration 250 μM (final DMSO 2.5%)
Property Label: solubility at 24 h (µM)
Please respond with the number in µM and leave the unit unwritten.

// worked examples, solubility at 24 h included
>>> reported("CCCCCCNc1ccc([N+](=O)[O-])cc1S(=O)(=O)NC")
1
>>> reported("CCOc1cc(NCCCCCCCC(F)(F)F)c(S(=O)(=O)N(C)C)cc1C(=O)O")
43

Read the next record carefully.
Look at this compound and give its reported solubility at 24 h. `O=C(O)c1ccc(NCCCCCCCC(F)(F)F)c(S(=O)(=O)NC2CCCC2)c1` 223

###

# Assay System: NKCC1 (Homo sapiens, UniProt P55011)
# Construct: host or cells: HEK293
# Sequence (P55011 1-1212): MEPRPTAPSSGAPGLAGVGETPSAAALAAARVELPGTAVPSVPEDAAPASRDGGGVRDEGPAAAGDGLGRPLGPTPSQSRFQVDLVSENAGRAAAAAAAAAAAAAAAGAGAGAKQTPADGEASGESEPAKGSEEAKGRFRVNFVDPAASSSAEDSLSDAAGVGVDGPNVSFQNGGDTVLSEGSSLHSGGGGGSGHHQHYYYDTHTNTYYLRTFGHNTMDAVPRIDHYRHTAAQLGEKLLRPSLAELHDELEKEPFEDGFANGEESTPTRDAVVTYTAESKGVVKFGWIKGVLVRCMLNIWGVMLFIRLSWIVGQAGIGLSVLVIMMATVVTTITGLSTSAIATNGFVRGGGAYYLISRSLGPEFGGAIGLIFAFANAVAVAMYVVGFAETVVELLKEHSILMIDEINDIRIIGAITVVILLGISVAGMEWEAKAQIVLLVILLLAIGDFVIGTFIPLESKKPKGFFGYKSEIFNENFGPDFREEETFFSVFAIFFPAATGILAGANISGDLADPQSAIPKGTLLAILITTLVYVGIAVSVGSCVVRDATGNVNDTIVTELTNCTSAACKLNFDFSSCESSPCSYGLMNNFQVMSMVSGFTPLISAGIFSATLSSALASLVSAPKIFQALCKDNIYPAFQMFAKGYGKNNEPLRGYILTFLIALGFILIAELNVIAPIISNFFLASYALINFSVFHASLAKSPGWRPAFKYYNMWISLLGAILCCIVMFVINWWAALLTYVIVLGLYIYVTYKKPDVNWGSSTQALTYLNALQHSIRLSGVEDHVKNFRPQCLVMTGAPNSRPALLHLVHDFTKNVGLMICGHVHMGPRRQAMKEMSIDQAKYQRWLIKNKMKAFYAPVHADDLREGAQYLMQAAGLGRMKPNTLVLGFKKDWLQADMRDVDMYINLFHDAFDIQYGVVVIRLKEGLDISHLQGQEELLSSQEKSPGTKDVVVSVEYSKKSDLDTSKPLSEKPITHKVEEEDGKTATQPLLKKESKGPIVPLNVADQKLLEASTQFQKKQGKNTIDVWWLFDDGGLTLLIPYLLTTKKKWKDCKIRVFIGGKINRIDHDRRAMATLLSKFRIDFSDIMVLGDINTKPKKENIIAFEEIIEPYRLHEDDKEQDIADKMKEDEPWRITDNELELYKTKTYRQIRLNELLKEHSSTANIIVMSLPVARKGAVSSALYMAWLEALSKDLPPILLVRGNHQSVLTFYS
# Procedure Summary: Cl- influx assay in NKCC1-transfected HEK293 cells
# Type: cell-based
# Condition Info: HEK293, read-out: Inhibition 100 μM Cl- influx (%)
Binning scheme for inhibition at 100 µM: bottom end (below 10%), midrange (10% to below 20%), top end (20% or more)

>>> label_value("CCCCCCNc1ccc([N+](=O)[O-])cc1S(=O)(=O)NC [Compound 3]")
"top end"
>>> label_value("CCCCNc1ccc([N+](=O)[O-])cc1S(=O)(=O)N(C)C [Compound 11]")
"midrange"
>>> label_value("CN(C)S(=O)(=O)c1cc(C(=O)O)ccc1NCCCCCC(F)(F)F [Compound 28]")
"midrange"
>>> label_value("CN(C)S(=O)(=O)c1cc([N+](=O)[O-])ccc1NCCC(C)(C)C [Compound 14]")
"midrange"
>>> label_value("CNS(=O)(=O)c1cc(C(=O)O)ccc1NCCC(C)(C)C [Compound 22]")
"bottom end"
>>> label_value("CCCCNc1cc(C(=O)O)cc(S(N)(=O)=O)c1Oc1ccccc1 [bumetanide, reference compound]")
"top end"
>>> label_value("CN(C)S(=O)(=O)c1cc(C(=O)O)ccc1NCCCCCCCC(F)(F)F [Compound 1]")
"top end"
>>> label_value("COCCNc1ccc(C(=O)O)cc1S(=O)(=O)N(C)C [Compound 29]")
"bottom end"
>>> label_value("CCCCCCCCNc1ccc(C(=O)O)cc1S(N)(=O)=O [Compound 17, 4-(Octylamino)-3-sulfamoyl-benzoic Acid]")
"top end"
>>> label_value("CN(C)S(=O)(=O)c1cc(C(=O)O)ccc1NCCCC(F)(F)F [Compound 27]")
"bottom end"

Input CC(C)(C)CCNc1ccc([N+](=O)[O-])cc1S(N)(=O)=O [Compound 8] ; output its category midrange

Another compound: CCCCNc1ccc([N+](=O)[O-])cc1S(=O)(=O)NC [Compound 9] midrange

Consider next the compound CCCCCCCCNc1ccc(C(=O)O)cc1S(=O)(=O)N(C)C [Compound 25] in the same way. top end
